Recorded melting point by entry
QUANTITY: melting point (°C)

INSERT INTO assay_data (molecule, units_of_measure, result_value) VALUES
  ('COc1nc2ccc(Br)cc2cc1[C@@H](c1ccc(Cl)cc1)[C@]1(c2cccc3ccccc23)CCN(C)CO1 (single isomer, unassigned)', '°C', 201),
  ('COc1nc2ccc(Br)cc2cc1[C@@H](c1ccccc1)[C@]1(c2cccc3ccccc23)CCN(C)CO1 (single isomer, unassigned)', '°C', 112),
  ('CCN1CC[C@@](c2ccc(F)cc2F)(C(c2ccccc2)c2cc3cc(Br)ccc3nc2OC)OC1=O (single isomer, unassigned)', '°C', 216),
  ('COc1nc2ccc(Br)cc2cc1[C@@H](c1ccccc1)[C@@]1(c2cccc3ccccc23)CCN(C)CO1 (single isomer, unassigned)', '°C', 108),
  ('CCN1CC[C@](c2ccc(F)cc2F)(C(c2ccccc2)c2cc3cc(Br)ccc3nc2OC)OC1=O (single isomer, unassigned)', '°C', 192),
  ('COc1nc2ccc(Br)cc2cc1[C@H](c1ccccc1)C1(c2ccccc2)CCN(C)CO1 (single isomer, unassigned)', '°C', 168);

Cited source: patent US7338949B2
